# Procedure Details: Phase I study CXR1002-001: plasma pharmacokinetics (LC-MS/MS)
# Assay type: in vivo, human
# Study Conditions: human, plasma, po, 1200 mg, Patient 036, 1200 mg weekly oral dose, Time 338 hr; read-out: Concentration (plasma level)
# From the text: PK samples, PD (fasting) samples, blood glucose, and blood triglyceride samples, were taken over a 6-week period. Dose limiting toxicity (DLT) will be based on the toxicity assessments over the first 3-week period of the repeat dosing schedule. […]
Measured Parameter: concentration at 338 hr

Asked: concentration at 338 hr lookup needed for O=C(O)C(F)(F)C(F)(F)C(F)(F)C(F)(F)C(F)(F)C(F)(F)C(F)(F)F [CXR1002] , thanks.
Given back: 840 µM

###

# Procedure Details: Phase I study CXR1002-001: plasma pharmacokinetics (LC-MS/MS)
# Assay type: in vivo, human
# Study Conditions: human, plasma, oral, 750 mg, Patient 026, 750 mg, person, plasma, 338 hr; read-out: Concentration
Measured Parameter: concentration at 338 h (µM)
Give the value in µM but do not write µM after it.

Asked: concentration at 338 h lookup needed for O=C(O)C(F)(F)C(F)(F)C(F)(F)C(F)(F)C(F)(F)C(F)(F)C(F)(F)F , thanks.
Given back: 399

###

# Procedure Details: Phase I study CXR1002-001: plasma pharmacokinetics (LC-MS/MS)
# Type: in vivo, human
# Study Conditions: human, plasma, oral, 600 mg, Patient 020, 600 mg, person, plasma, 842 hr; read-out: Concentration
Measured Parameter: concentration at 842 h (µM)
Give the value in µM but do not write µM after it.

Asked: concentration at 842 h lookup needed for O=C(O)C(F)(F)C(F)(F)C(F)(F)C(F)(F)C(F)(F)C(F)(F)C(F)(F)F , thanks.
Given back: 700

###

# Procedure Details: Phase I study CXR1002-001: plasma pharmacokinetics (LC-MS/MS)
# Format: in vivo, human
# Study Conditions: human, plasma, oral, 200 mg, Patient 009 Dose 200 mg; 504 hr (Day 22); read-out: Concentration
Measured Parameter: concentration at 504 h (µM)
Give the value in µM but do not write µM after it.

Asked: concentration at 504 h lookup needed for O=C(O)C(F)(F)C(F)(F)C(F)(F)C(F)(F)C(F)(F)C(F)(F)C(F)(F)F [CXR1002] , thanks.
Given back: 253

###

# Procedure Details: Phase I study CXR1002-001: plasma pharmacokinetics (LC-MS/MS)
# Format: in vivo, human
# Study Conditions: human, plasma, oral, 750 mg, Patient 026, 750 mg, person, plasma, 672 hr (Day 29); read-out: Concentration
Measured Parameter: concentration at 672 h (µM)
Give the value in µM but do not write µM after it.

Asked: concentration at 672 h lookup needed for O=C(O)C(F)(F)C(F)(F)C(F)(F)C(F)(F)C(F)(F)C(F)(F)C(F)(F)F , thanks.
Given back: 594

###

# Procedure Details: Phase I study CXR1002-001: plasma pharmacokinetics (LC-MS/MS)
# Format: in vivo, human
# Study Conditions: human, plasma, oral, 450 mg, Patient 016 Dose 450 mg; 360 hr (Day 16); read-out: Concentration
Measured Parameter: concentration at 360 h (µM)
Give the value in µM but do not write µM after it.

Asked: concentration at 360 h lookup needed for O=C(O)C(F)(F)C(F)(F)C(F)(F)C(F)(F)C(F)(F)C(F)(F)C(F)(F)F , thanks.
Given back: 471

###

# Procedure Details: Phase I study CXR1002-001: plasma pharmacokinetics (LC-MS/MS)
# Format: in vivo, human
# Study Conditions: human, plasma, oral, 300 mg, Patient 012 Dose 300 mg; 336 hr (Day 15); read-out: Concentration
Measured Parameter: concentration at 336 h (µM)
Give the value in µM but do not write µM after it.

Asked: concentration at 336 h lookup needed for O=C(O)C(F)(F)C(F)(F)C(F)(F)C(F)(F)C(F)(F)C(F)(F)C(F)(F)F [CXR1002] , thanks.
Given back: 141

###

# Procedure Details: Phase I study CXR1002-001: plasma pharmacokinetics (LC-MS/MS)
# Type: in vivo, human
# Study Conditions: human, plasma, oral, 1200 mg, Patient 033, 1200 mg, person, plasma, 340 hr; read-out: Concentration
Measured Parameter: concentration at 340 h (µM)
Give the value in µM but do not write µM after it.

Asked: concentration at 340 h lookup needed for O=C(O)C(F)(F)C(F)(F)C(F)(F)C(F)(F)C(F)(F)C(F)(F)C(F)(F)F [CXR1002] , thanks.
Given back: 817

###

# Procedure Details: Phase I study CXR1002-001: plasma pharmacokinetics (LC-MS/MS)
# Format: in vivo, human
# Study Conditions: human, plasma, oral, 100 mg, Patient 005 Dose 100 mg; 506 hr; read-out: Concentration
# Description: PK samples, PD (fasting) samples, blood glucose, and blood triglyceride samples, were taken over a 6-week period. Dose limiting toxicity (DLT) will be based on the toxicity assessments over the first 3-week period of the repeat dosing schedule. […]
Measured Parameter: concentration at 506 h (µM)
Give the value in µM but do not write µM after it.

Asked: concentration at 506 h lookup needed for O=C(O)C(F)(F)C(F)(F)C(F)(F)C(F)(F)C(F)(F)C(F)(F)C(F)(F)F , thanks.
Given back: 84

###

# Procedure Details: Phase I study CXR1002-001: plasma pharmacokinetics (LC-MS/MS)
# Type: in vivo, human
# Study Conditions: human, plasma, oral, 750 mg, Patient 026, 750 mg, person, plasma, 507 hr; read-out: Concentration
Measured Parameter: concentration at 507 h
Report as: number unit

Asked: concentration at 507 h lookup needed for O=C(O)C(F)(F)C(F)(F)C(F)(F)C(F)(F)C(F)(F)C(F)(F)C(F)(F)F , thanks.
Given back: 546 µM

###

# Procedure Details: Phase I study CXR1002-001: plasma pharmacokinetics (LC-MS/MS)
# Assay type: in vivo, human
# Study Conditions: human, plasma, oral, 450 mg, Patient 016 Dose 450 mg; 192 hr (Day 9); read-out: Concentration
Measured Parameter: concentration at 192 h (µM)
Give the value in µM but do not write µM after it.

Asked: concentration at 192 h lookup needed for O=C(O)C(F)(F)C(F)(F)C(F)(F)C(F)(F)C(F)(F)C(F)(F)C(F)(F)F , thanks.
Given back: 348

###

# Procedure Details: Phase I study CXR1002-001: plasma pharmacokinetics (LC-MS/MS)
# Assay type: in vivo, human
# Study Conditions: human, plasma, oral, 450 mg, Patient 015 Dose 450 mg; 170 hr; read-out: Concentration
Measured Parameter: concentration at 170 h (µM)
Give the value in µM but do not write µM after it.

Asked: concentration at 170 h lookup needed for O=C(O)C(F)(F)C(F)(F)C(F)(F)C(F)(F)C(F)(F)C(F)(F)C(F)(F)F , thanks.
Given back: 325

###

# Procedure Details: Phase I study CXR1002-001: plasma pharmacokinetics (LC-MS/MS)
# Type: in vivo, human
# Study Conditions: human, plasma, po, 1200 mg, Patient 036, 1200 mg weekly oral dose, Time 506 hr; read-out: Concentration (plasma level)
Measured Parameter: concentration at 506 h

Asked: concentration at 506 h lookup needed for O=C(O)C(F)(F)C(F)(F)C(F)(F)C(F)(F)C(F)(F)C(F)(F)C(F)(F)F , thanks.
Given back: 1140 µM

###

# Procedure Details: Phase I study CXR1002-001: plasma pharmacokinetics (LC-MS/MS)
# Type: in vivo, human
# Study Conditions: human, plasma, oral, 300 mg, Patient 012 Dose 300 mg; 507 hr; read-out: Concentration
Measured Parameter: concentration at 507 h (µM)
Give the value in µM but do not write µM after it.

Asked: concentration at 507 h lookup needed for O=C(O)C(F)(F)C(F)(F)C(F)(F)C(F)(F)C(F)(F)C(F)(F)C(F)(F)F , thanks.
Given back: 261

###

# Procedure Details: Phase I study CXR1002-001: plasma pharmacokinetics (LC-MS/MS)
# Assay type: in vivo, human
# Study Conditions: human, plasma, oral, 200 mg, Patient 010 Dose 200 mg; 339 hr; read-out: Concentration
Measured Parameter: concentration at 339 h (µM)
Give the value in µM but do not write µM after it.

Asked: concentration at 339 h lookup needed for O=C(O)C(F)(F)C(F)(F)C(F)(F)C(F)(F)C(F)(F)C(F)(F)C(F)(F)F [CXR1002] , thanks.
Given back: 103

###

# Procedure Details: Phase I study CXR1002-001: plasma pharmacokinetics (LC-MS/MS)
# Format: in vivo, human
# Study Conditions: human, plasma, oral, 1200 mg, Patient 034, 1200 mg, person, plasma, 696 hr (Day 30); read-out: Concentration
Measured Parameter: concentration at 696 hr
Report as: number unit

Asked: concentration at 696 hr lookup needed for O=C(O)C(F)(F)C(F)(F)C(F)(F)C(F)(F)C(F)(F)C(F)(F)C(F)(F)F , thanks.
Given back: 1310 µM
